All values here come from paper PMC6425606.

test: Epacadostat plasma pharmacokinetics (LC-MS/MS, noncompartmental analysis); format: in vivo, human; conditions: human, plasma, oral, 50 mg, epacadostat 50 mg BID continuous (n=13), steady state Cycle 1 Day 10; read-out: AUC0–12h, mean ± SD
test.readout: AUC(0-t) (µM·h)
Answers are plain numbers, in µM·h.

The value of AUC(0-t) measured for the compound NS(=O)(=O)NCCNc1nonc1C(=NO)Nc1ccc(F)c(Br)c1 [epacadostat] turned out to be 1.9

---

assay: Epacadostat plasma pharmacokinetics (LC-MS/MS, noncompartmental analysis); format: in vivo, human; settings: human, plasma, oral, 300 mg, epacadostat 300 mg BID (n=6), steady state Cycle 1 Day 10; read-out: AUC0–12h, geometric mean
test.readout: AUC(0-t) (µM·h)
Answers are plain numbers, in µM·h.

The value of AUC(0-t) measured for the molecule NS(=O)(=O)NCCNc1nonc1C(=NO)Nc1ccc(F)c(Br)c1 [epacadostat] turned out to be 9.2

---

assay: Epacadostat plasma pharmacokinetics (LC-MS/MS, noncompartmental analysis); format: in vivo, human; conditions: epacadostat 50 mg BID intermittent (n=7), steady state Cycle 1 Day 10; read-out: Cmax, geometric mean
test.readout: Cmax (nM)
Answers are plain numbers, in nM.

The value of Cmax measured for the compound NS(=O)(=O)NCCNc1nonc1C(=NO)Nc1ccc(F)c(Br)c1 turned out to be 500

---

assay: Epacadostat plasma pharmacokinetics (LC-MS/MS, noncompartmental analysis); format: in vivo, human; conditions: epacadostat 50 mg BID continuous (n=13), steady state Cycle 1 Day 10; read-out: Cmax, mean ± SD
test.readout: Cmax
Please answer using a numeric value trailed by its unit.

The value of Cmax measured for the compound NS(=O)(=O)NCCNc1nonc1C(=NO)Nc1ccc(F)c(Br)c1 [epacadostat] turned out to be 0.5 µM

---

test: Epacadostat plasma pharmacokinetics (LC-MS/MS, noncompartmental analysis); assay type: in vivo, human; conditions: human, plasma, oral, 50 mg, epacadostat 50 mg BID intermittent (n=7), steady state Cycle 1 Day 10; read-out: AUC0–12h, geometric mean
test.readout: AUC(0-t)
Please answer using a numeric value trailed by its unit.

The value of AUC(0-t) measured for the compound NS(=O)(=O)NCCNc1nonc1C(=NO)Nc1ccc(F)c(Br)c1 turned out to be 2.1 µM·h

---

assay: Epacadostat plasma pharmacokinetics (LC-MS/MS, noncompartmental analysis); assay type: in vivo, human; conditions: epacadostat 50 mg BID continuous (n=13), steady state Cycle 1 Day 10; read-out: Cmax, geometric mean
test.readout: Cmax (nM)
Give bare numbers, in nM.

The value of Cmax measured for the compound NS(=O)(=O)NCCNc1nonc1C(=NO)Nc1ccc(F)c(Br)c1 turned out to be 400

---

assay: Epacadostat plasma pharmacokinetics (LC-MS/MS, noncompartmental analysis); format: in vivo, human; conditions: human, plasma, po, repeat oral doses of 25 mg BID, 50 mg BID, 50 mg BID intermittent, 300 mg BID; read-out: Mean terminal elimination half-life (t½)
test.readout: half-life

The value of half-life measured for the compound NS(=O)(=O)NCCNc1nonc1C(=NO)Nc1ccc(F)c(Br)c1 turned out to be 5 to 9 h

---

assay: Epacadostat plasma pharmacokinetics (LC-MS/MS, noncompartmental analysis); type: in vivo, human; conditions: human, plasma, oral, 50 mg, epacadostat 50 mg BID intermittent (n=7), steady state Cycle 1 Day 10; read-out: t½, geometric mean (converted)
test.readout: half-life

The value of half-life measured for the compound NS(=O)(=O)NCCNc1nonc1C(=NO)Nc1ccc(F)c(Br)c1 [epacadostat] turned out to be 4.5 h

---

assay: Epacadostat plasma pharmacokinetics (LC-MS/MS, noncompartmental analysis); format: in vivo, human; details: human, plasma, oral, 50 mg, epacadostat 50 mg BID continuous (n=13), steady state Cycle 1 Day 10; read-out: t½, mean ± SD (converted)
test.readout: half-life (h)
Answers are plain numbers, in h.

The value of half-life measured for the compound NS(=O)(=O)NCCNc1nonc1C(=NO)Nc1ccc(F)c(Br)c1 [epacadostat] turned out to be 7.1

---

experiment: Epacadostat plasma pharmacokinetics (LC-MS/MS, noncompartmental analysis); format: in vivo, human; details: human, plasma, oral, 25 mg, epacadostat 25 mg BID (n=10), steady state Cycle 1 Day 10; read-out: t½, mean ± SD (converted)
test.readout: half-life (h)
Answers are plain numbers, in h.

The value of half-life measured for the molecule NS(=O)(=O)NCCNc1nonc1C(=NO)Nc1ccc(F)c(Br)c1 turned out to be 9.1

---

assay: Epacadostat plasma pharmacokinetics (LC-MS/MS, noncompartmental analysis); assay type: in vivo, human; details: human, plasma, oral, 25 mg, epacadostat 25 mg BID (n=10), steady state Cycle 1 Day 10; read-out: AUC0–12h, geometric mean
test.readout: AUC(0-t) (nM·h)
Give bare numbers, in nM·h.

The value of AUC(0-t) measured for the compound NS(=O)(=O)NCCNc1nonc1C(=NO)Nc1ccc(F)c(Br)c1 [epacadostat] turned out to be 900

---

test: Epacadostat plasma pharmacokinetics (LC-MS/MS, noncompartmental analysis); assay type: in vivo, human; conditions: human, plasma, oral, 50 mg, epacadostat 50 mg BID intermittent (n=7), steady state Cycle 1 Day 10; read-out: t½, mean ± SD (converted)
test.readout: half-life (h)
Numbers only, in h.

The value of half-life measured for the molecule NS(=O)(=O)NCCNc1nonc1C(=NO)Nc1ccc(F)c(Br)c1 turned out to be 5.1

---

Assay: Epacadostat plasma pharmacokinetics (LC-MS/MS, noncompartmental analysis)
Type: in vivo, human
Conditions: human, plasma, oral, 300 mg, epacadostat 300 mg BID (n=6), steady state Cycle 1 Day 10; read-out: t½, geometric mean (converted)
Experimental: SAS® software, version 9.4 (SAS Institute Inc., Cary, NC) was used to generate all tables, graphs, and statistical analyses. […] Descriptive statistics were used to present summaries of continuous and categorical variables. Survival data (OS, PFS) were analyzed using the nonparametric Kaplan-Meier method. Thirty-six patients were evaluable for pharmacokinetic analyses. […] Steady-state pharmacokinetic observations (Cycle 1, Day 10) are summarized in Additional file 1: Table S3.
test.readout: half-life (h)
Answers are plain numbers, in h.

The value of half-life measured for the compound NS(=O)(=O)NCCNc1nonc1C(=NO)Nc1ccc(F)c(Br)c1 turned out to be 5.4

---

experiment: Epacadostat plasma pharmacokinetics (LC-MS/MS, noncompartmental analysis); format: in vivo, human; conditions: human, plasma, oral, 25 mg, epacadostat 25 mg BID (n=10), steady state Cycle 1 Day 10; read-out: t½, geometric mean (converted)
test.readout: half-life (h)
Give bare numbers, in h.

The value of half-life measured for the compound NS(=O)(=O)NCCNc1nonc1C(=NO)Nc1ccc(F)c(Br)c1 turned out to be 7.4
